Assay: Henry solubility constant Hcp at 295 K (mol/(m3 Pa))
Conditions: reference: Hellmann (1987)
METRIC: Henry solubility constant Hcp at 295 K

Task: Consider the compound shown here: CC(C)=O What is its recorded Henry solubility constant Hcp at 295 K?
Result: 0.14

Task: What does the record list as Henry solubility constant Hcp at 295 K for Clc1cc(Cl)cc(Cl)c1 ?
Result: 0.035

Task: Quick check: Henry solubility constant Hcp at 295 K of c1ccccc1 ?
Result: 0.002

Task: Endpoint output: Henry solubility constant Hcp at 295 K of ClCCl . Value?
Result: 0.0057

Task: Suppose we examine the compound ClC(Cl)(Cl)Cl ; what Henry solubility constant Hcp at 295 K value has been reported?
Result: 0.00033

Task: Looking for the measured Henry solubility constant Hcp at 295 K of O=[N+]([O-])c1ccccc1 , can you help?
Result: 0.14

Task: Name the recorded Henry solubility constant Hcp at 295 K for ClC=C(Cl)Cl .
Result: 0.00098

Task: Item Clc1ccccc1 has what recorded Henry solubility constant Hcp at 295 K?
Result: 0.0029

Task: Param item = ClC(Cl)=C(Cl)Cl ; retrieve measured Henry solubility constant Hcp at 295 K.
Result: 0.00077

Task: Can you look up the measured Henry solubility constant Hcp at 295 K of CC(=O)CC(C)C for me?
Result: 0.065

Task: Sample CCCCCOC(C)=O [pentyl ethanoate] — what was its Henry solubility constant Hcp at 295 K?
Result: 0.034

Task: If you can, please state the reported Henry solubility constant Hcp at 295 K value of O=[N+]([O-])c1ccc(Cl)cc1 .
Result: 0.18

src = Sander's compilation of Henry's law constants (doi:10.1007/bf00475967)
